- Measured target: human Cytochrome P 450 3A4 (Homo sapiens)
- Sequence (P08684 whole entry): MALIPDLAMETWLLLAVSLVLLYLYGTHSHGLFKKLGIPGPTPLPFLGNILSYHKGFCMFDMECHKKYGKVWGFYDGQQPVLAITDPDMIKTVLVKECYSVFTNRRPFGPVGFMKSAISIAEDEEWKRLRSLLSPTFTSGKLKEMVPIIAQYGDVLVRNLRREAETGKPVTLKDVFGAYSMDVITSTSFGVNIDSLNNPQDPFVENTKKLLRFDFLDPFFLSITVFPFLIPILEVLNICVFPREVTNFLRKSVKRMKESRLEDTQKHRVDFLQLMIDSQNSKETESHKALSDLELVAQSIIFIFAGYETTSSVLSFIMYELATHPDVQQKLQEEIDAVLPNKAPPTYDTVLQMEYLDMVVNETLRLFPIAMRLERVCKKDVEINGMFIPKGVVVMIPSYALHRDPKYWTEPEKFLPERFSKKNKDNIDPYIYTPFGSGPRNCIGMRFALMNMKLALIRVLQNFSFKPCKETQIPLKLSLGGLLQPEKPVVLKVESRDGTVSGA

[
  {
    "Entry smiles": "O=C1Cc2ccc(NC(=O)c3ccccc3NCc3ccc(=O)[nH]c3)cc2N1",
    "IC50": "> 30 µM"
  }
]

====

- Measured target: human Cytochrome P 450 2C19 (Homo sapiens)
- Construct: host or cells: baculovirus/insect cells
- Sequence (P33261 whole entry): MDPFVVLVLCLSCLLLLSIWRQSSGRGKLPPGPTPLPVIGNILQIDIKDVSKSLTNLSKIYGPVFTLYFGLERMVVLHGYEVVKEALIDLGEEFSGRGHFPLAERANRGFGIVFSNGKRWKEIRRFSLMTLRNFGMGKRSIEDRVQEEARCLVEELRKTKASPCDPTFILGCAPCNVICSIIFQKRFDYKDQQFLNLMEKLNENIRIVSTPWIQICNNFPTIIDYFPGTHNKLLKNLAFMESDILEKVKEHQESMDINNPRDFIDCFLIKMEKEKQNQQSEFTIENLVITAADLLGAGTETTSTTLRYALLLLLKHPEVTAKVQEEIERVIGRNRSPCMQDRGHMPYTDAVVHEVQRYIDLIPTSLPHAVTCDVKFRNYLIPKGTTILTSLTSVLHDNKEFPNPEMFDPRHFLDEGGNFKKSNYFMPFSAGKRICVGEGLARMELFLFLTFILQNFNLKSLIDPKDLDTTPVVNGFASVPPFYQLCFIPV
- Assay comment: Cytochrome P450 inhibition, isoenzyme 2C19
- Format: in vitro ADME
- Test settings: baculovirus/insect cell-expressed human isoenzyme 2C19; read-out: Inhibition of the Cytochrome P450 Isoenzymes (IC50) 2C19
pIC50: −log10 of the molar value.

[
  {
    "Entry smiles": "O=C1Cc2ccc(NC(=O)c3ccccc3NCc3ccc(=O)[nH]c3)cc2N1",
    "pIC50": "< 4.52"
  }
]

====

- Measured target: UniProt P05177
- Sequence (P05177 whole entry): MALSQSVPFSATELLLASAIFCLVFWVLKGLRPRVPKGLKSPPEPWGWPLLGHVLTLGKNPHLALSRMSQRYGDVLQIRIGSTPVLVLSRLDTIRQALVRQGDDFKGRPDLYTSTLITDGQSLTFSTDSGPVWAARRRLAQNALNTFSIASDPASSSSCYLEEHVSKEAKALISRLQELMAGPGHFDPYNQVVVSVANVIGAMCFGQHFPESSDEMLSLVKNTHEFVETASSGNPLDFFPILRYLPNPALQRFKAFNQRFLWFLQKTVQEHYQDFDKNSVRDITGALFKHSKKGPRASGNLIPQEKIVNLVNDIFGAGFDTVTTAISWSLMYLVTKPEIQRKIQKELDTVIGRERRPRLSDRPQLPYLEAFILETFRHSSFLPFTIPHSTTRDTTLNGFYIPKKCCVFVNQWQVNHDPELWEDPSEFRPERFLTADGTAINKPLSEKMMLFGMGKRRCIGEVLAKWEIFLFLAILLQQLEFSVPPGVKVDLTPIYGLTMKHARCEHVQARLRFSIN
pIC50: −log10 of the molar value.

[
  {
    "Entry smiles": "O=C1Cc2ccc(NC(=O)c3ccccc3NCc3ccc(=O)[nH]c3)cc2N1",
    "pIC50": "< 4.52"
  }
]
